Reference source: ChEMBL document CHEMBL3763104

System: Candida albicans
PROTOCOL_DESCRIPTION: Antimicrobial activity against Candida albicans ATCC 90028 biofilm at 0.2 % after 1 hr by MTT assay relative to control
Assay type: functional
inhibition (INH) below 20% gives 0.0; inhibition (INH) at or above it gives 1.0.

MOLECULE: CCOC(=O)C1=C(OCc2ccccc2)C(=O)NC1
STUDY_SYSTEM: Candida albicans
GROUP_LABEL: 1.0

MOLECULE: CCOC(=O)C1=C(O)C(=O)N(Cc2ccc(OC)cc2)C1
STUDY_SYSTEM: Candida albicans
GROUP_LABEL: 0.0

MOLECULE: N=C(NCCCCCCNC(=N)NC(=N)Nc1ccc(Cl)cc1)NC(=N)Nc1ccc(Cl)cc1
STUDY_SYSTEM: Candida albicans
GROUP_LABEL: 1.0

MOLECULE: COc1ccc(CN2CC(CO)=C(O[Si](C)(C)C(C)(C)C)C2=O)cc1
STUDY_SYSTEM: Candida albicans
GROUP_LABEL: 1.0

MOLECULE: CCOC(=O)C1=C(OCc2ccccc2)C(=O)N(C(=O)C(NC(=O)OC(C)(C)C)C(C)C)C1 (configuration not stated)
STUDY_SYSTEM: Candida albicans
GROUP_LABEL: 0.0

MOLECULE: CCOC(=O)C1=C(OCc2ccccc2)C(=O)N(C(=O)[C@@H](N)C(C)C)C1.O=C(O)C(F)(F)F
STUDY_SYSTEM: Candida albicans
GROUP_LABEL: 0.0

MOLECULE: COc1ccc(CN2CC(CO)=C(OCc3ccccc3)C2=O)cc1
STUDY_SYSTEM: Candida albicans
GROUP_LABEL: 1.0

MOLECULE: CCCCCCCCCCC1=C(O[Si](C)(C)C(C)(C)C)C(=O)N(Cc2ccc(OC)cc2)C1
STUDY_SYSTEM: Candida albicans
GROUP_LABEL: 0.0

MOLECULE: CCOC(=O)C1=C(OC)C(=O)N(C(=O)C(NC(=O)OC(C)(C)C)C(C)C)C1 (configuration not stated)
STUDY_SYSTEM: Candida albicans
GROUP_LABEL: 0.0

MOLECULE: CCOC(=O)C1=C(O[Si](C)(C)C(C)(C)C)C(=O)N(Cc2ccc(OC)cc2)C1
STUDY_SYSTEM: Candida albicans
GROUP_LABEL: 0.0

MOLECULE: CCOC(=O)C1=C(OCc2ccccc2)C(=O)N(Cc2ccc(OC)cc2)C1
STUDY_SYSTEM: Candida albicans
GROUP_LABEL: 1.0

MOLECULE: CCCCCCCC/C=C/C1=C(OCc2ccccc2)C(=O)N(Cc2ccc(OC)cc2)C1
STUDY_SYSTEM: Candida albicans
GROUP_LABEL: 1.0
